Data credit: the supplement of paper PMC8007513

# Tested on: Trichoderma virens ATCC 9645
# Protocol: growth yield (OD600) with compound + IPBC relative to untreated control; higher = less growth inhibition
# Experimental parameters: compound concentration: 100 uM; IPBC concentration: 200 ng/ml; 40 h
Counter-ions that a name gives are not always drawn. In all, about 1,300 compounds went through this assay and about 130 (10%) showed an effect of 50% or more. The sample holds strong results, similar compounds and a random draw of the others, so the mix is not that of the screen.
Listing of entries alongside the reported growth yield.
The answer is to be given in %; state only the numeric part.

Compound: CCN1CCC[C@H]1CNC(=O)c1c(OC)ccc(Br)c1OC [Remoxipride Hydrochloride] + CCCCNC(=O)OCC#CI [3-iodo-2-propynyl butylcarbamate (IPBC)]
growth yield [%]: 101

Let us move to another entry and its growth yield.
query: # return recorded growth yield for entry CC[C@H]1OC(=O)[C@H](C)[C@@H](O[C@H]2C[C@@](C)(OC)[C@@H](O)[C@H](C)O2)[C@H](C)[C@@H](O[C@@H]2O[C@H](C)C[C@H](N(C)C)[C@H]2O)[C@](C)(O)C[C@@H](C)/C(=N\OCOCCOC)[C@H](C)[C@@H](O)[C@]1(C)O [Roxithromycin] + CCCCNC(=O)OCC#CI [3-iodo-2-propynyl butylcarbamate (IPBC)]
result: 97.2
